Reported IC50 values are given for each entry in this list.
TARGET_OF_ASSAY: T1, human SIRPα v2 ECD recombinant protein (tag not given) (human)
T1 construct: extracellular domain; also called ELISA microplate coated human SIRPα v2 ECD
MEASUREMENT_PROTOCOL: competitive ELISA, mFc-CD47 ECD on coated SIRPα v2 ECD

| BINDER | IC50 |
| --- | --- |
| 025c (antibody, V domains shown, also called chimeric antibody 025c; parental antibody of 025c) VH: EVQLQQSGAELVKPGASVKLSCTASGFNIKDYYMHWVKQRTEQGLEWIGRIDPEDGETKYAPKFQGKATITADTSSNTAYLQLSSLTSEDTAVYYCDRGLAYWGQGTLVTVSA VL: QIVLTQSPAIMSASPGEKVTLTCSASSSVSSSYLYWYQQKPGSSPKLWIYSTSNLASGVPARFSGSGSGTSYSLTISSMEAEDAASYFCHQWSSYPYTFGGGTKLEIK | 1.86 nM |
| hu025.059 (antibody, V domains shown, Humanized 025; also called hu025.59) VH: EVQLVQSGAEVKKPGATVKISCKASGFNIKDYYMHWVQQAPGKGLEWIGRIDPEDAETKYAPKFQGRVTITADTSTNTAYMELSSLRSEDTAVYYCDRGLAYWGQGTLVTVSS VL: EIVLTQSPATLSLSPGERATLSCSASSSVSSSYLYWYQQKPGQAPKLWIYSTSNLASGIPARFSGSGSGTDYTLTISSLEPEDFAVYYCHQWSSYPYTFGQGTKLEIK | 2.03 nM |
| hu025.021 (antibody, V domains shown, Humanized 025; also called hu025.21) VH: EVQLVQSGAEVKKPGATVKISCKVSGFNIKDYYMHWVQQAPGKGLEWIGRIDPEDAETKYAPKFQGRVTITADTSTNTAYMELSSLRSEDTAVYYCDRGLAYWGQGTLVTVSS VL: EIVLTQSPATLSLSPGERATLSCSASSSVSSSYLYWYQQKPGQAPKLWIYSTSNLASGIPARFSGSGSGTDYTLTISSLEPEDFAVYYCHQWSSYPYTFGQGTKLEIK | 1.96 nM |
